# assay-summary: NCI Yeast Anticancer Drug Screen. Data for the cln2 rad14 strain (AID 165);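 also: 0% = growth equal to vehicle treated cultures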
# applied-conditions: S. cerevisiae cln2 rad14 strain, at 50.0 µM, stronger effect = higher value
The panel holds about 79,000 compounds, 15% with a hit somewhere; the sample as a whole holds those more often.
Kindly supply the reported growth inhibition values for the records listed here.
API: value field is a number in %; no unit string.

### Prompt Need growth inhibition of `COC(=O)c1ccc(CSc2ccc(N)cc2)cc1` , thanks.
### Response 40.1

### Prompt I have this compound here, COc1ccc(OC)c(C(O)P(=O)(c2ccccc2)c2ccccc2)c1 (stereo unspecified) , and I need its recorded growth inhibition.
### Response 12.2

### Prompt Sample `C=C/C=C1\CCOC1=O` — what was its growth inhibition?
### Response -3.05

### Prompt Quick check: growth inhibition of Clc1ccc(C(CI)c2ccccc2Cl)cc1 (stereo unspecified) ?
### Response 13.8

### Prompt So what does the record say about growth inhibition for c1ccc(C2OC(c3ccccc3)c3ccccc32)cc1 (stereo unspecified) ?
### Response -2.05

### Prompt What value of measured growth inhibition is listed for CCOC1(COP(=O)(OCc2ccccc2)OCc2ccccc2)COC(COP(=O)(OCc2ccccc2)OCc2ccccc2)(OCC)CO1 (stereo unspecified) ?
### Response 2.2
